# experiment_notes: NCI Yeast Anticancer Drug Screen. Data for the mlh1 rad18 strain (AID 175)
# assay_setup: S. cerevisiae mlh1 rad18 strain growth inhibition; at 50.0 µM; stronger effect = higher value
The panel holds about 79,000 compounds, 15% with a hit somewhere; the sample as a whole holds those more often.
parameter: growth inhibition (%)
One number for each entry, in %.

Recorded growth inhibition, per entry:
[[record]]
compound = "c1ccc(SSc2ccc3ccccc3c2)cc1"
parameter = "growth inhibition"
unit_of_measurement = "%"
assay_result = 28.3

[[record]]
compound = "CSc1cc(Cl)c(C)cc1S(=O)(=O)NC(=O)NNc1ccccn1"
parameter = "growth inhibition"
unit_of_measurement = "%"
assay_result = 21

[[record]]
compound = "CCCCCCCCCCCCCCCCCCSc1ccc2ccccc2c1"
parameter = "growth inhibition"
unit_of_measurement = "%"
assay_result = -5.7

[[record]]
compound = "Cc1c2cnccc2c(C)c2c1c1ccccc1n2CCCCCCCl"
parameter = "growth inhibition"
unit_of_measurement = "%"
assay_result = 98.5

[[record]]
compound = "Cc1ccccc1NCS(=O)(=O)O"
parameter = "growth inhibition"
unit_of_measurement = "%"
assay_result = 4.6


Provide the reported growth inhibition of each entry below, same order.
1. NC(=O)c1ccccc1Sc1ccccc1C(N)=O
2. CSC(C1c2ccccc2N(C)C2=NC(=O)N(C)C(=O)C21Cl)S(=O)(=O)c1ccc(C)cc1 (stereo unspecified)
3. CCCCc1[nH]nc(-c2n[nH]c(CCCC)c2C)c1C
4. Cc1cccc(/C=N/Nc2ccc([N+](=O)[O-])cc2[N+](=O)[O-])c1C
5. O=c1[nH]cc(C(F)(C(F)(F)F)C(F)(F)F)c(=O)[nH]1
6. O=C(CN1C(=O)CC(NC(=O)OCc2ccccc2)C1=O)NCC(=O)Oc1ccc([N+](=O)[O-])cc1 (stereo unspecified)

Completion:
[0.6, 51.3, 27.9, 4, -36.8, 22.1]

----------
# experiment_notes: NCI Yeast Anticancer Drug Screen. Data for the mec2-1 strain (AID 157)
# assay_setup: S. cerevisiae mec2-1 strain, at 50.0 µM, stronger effect = higher value
This is part of a sample that, as a whole, favours compounds with a hit. Of some 79,000 tested, about 15% had one in any assay.
parameter: growth inhibition (%)
Numbers only, in %.

Recorded growth inhibition, per entry:
[[record]]
molecule = "C[n+]1c(I)ccc2ccccc21"
assay_result = 36.5

[[record]]
molecule = "CCOC(=O)C(=CNC(=S)Nc1ccccc1)C(=O)OCC"
assay_result = -22.9

[[record]]
molecule = "NC(=O)C1CCCC1"
assay_result = 2.1

[[record]]
molecule = "CC1CCC(C(=O)O)CC1 (stereo unspecified)"
assay_result = -9

[[record]]
molecule = "CCCCNS(=O)(=O)CCCC"
assay_result = 2.4


Provide the reported growth inhibition of each entry below, same order.
1. C=CC1CNCCC1CC(=O)OCC (stereo unspecified)
2. OC1(C#CC2(O)CCCC2)CCCC1
3. CCOC(=O)N1CCN(Cc2cc(=O)n3ccc(C)cc3n2)CC1
4. CC(=O)Nc1cccc(N=NN(C)C)c1
5. CCOC(=O)N1CCN(Cc2cc(=O)n3cc(C)ccc3n2)CC1
6. C=CCN(CC=C)CCNc1cc(C)nc(Nc2nc3ccc(Cl)cc3[nH]2)n1

Completion:
1. -5.55
2. -11.9
3. 2.8
4. 14.1
5. -15.5
6. 50.4

Provide the reported growth inhibition of each entry below, same order.
1. NC1=NN(c2ccccc2)C(=O)C1/C(=N\NC(=O)c1cc2ccccc2cc1O)C(=O)Nc1cccc(C(F)(F)F)c1 (stereo unspecified)
2. CC(=O)OC(C[N+]1(C)CCCCCC1)C[N+]1(C)CCCCCC1
3. NN1CCOC1=O
4. COc1c(CO)cc(C)cc1CO
5. CC(=O)Oc1cccc(C)c1
6. O=C(NCCCl)Oc1ccccc1
7. Cc1nc(NCc2ccco2)nc(NCc2ccco2)c1[N+](=O)[O-]

Completion:
1: 15.7; 2: -4.8; 3: -35.9; 4: -0.5; 5: -4.75; 6: -15.5; 7: -18.6

Provide the reported growth inhibition of each entry below, same order.
1. C1CCC2C(C1)CCCC2CC1CCCC2CCCCC21 (stereo unspecified)
2. COc1cc(C(=O)N2C3C4CCC(C)(OC4(C)C)C32)cc(OC)c1OC (stereo unspecified)
3. NS(=O)(=O)c1ccc(N2C(=O)C3C(C2=O)C2(Cl)C(Cl)=C(Cl)C3(Cl)C2(Cl)Cl)cc1 (stereo unspecified)
4. CCOC(=O)N1N=C(c2ccccc2)OC2(N3CCOCC3)CCC(C(C)(C)C)CC12 (stereo unspecified)

Completion:
1. 1.1
2. -15.4
3. -6.95
4. 5.1

Provide the reported growth inhibition of each entry below, same order.
1. O=C1NC2(CCCCC2)N=C2C(Cl)CCCC12Cl (stereo unspecified)
2. Cc1cccc(-c2c3ccccc3cc3ccccc23)c1
3. CCC1NC(=O)C(NC(=O)c2ncccc2O)C(C)OC(=O)C(c2ccccc2)NC(=O)C2CC(=O)CCN2C(=O)C(Cc2ccccc2)N(C)C(=O)C2CCCN2C1=O (stereo unspecified)
4. C/C(=N\NS(=O)(=O)c1ccc(C)cc1)P(=O)(O)O

Completion:
1: -24.5; 2: 14.2; 3: -32.6; 4: -13.4

----------
Record form. Attribute: growth inhibition. Fill in for each entry.
# experiment_notes: NCI Yeast Anticancer Drug Screen. Data for the cln2 rad14 strain (AID 165);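 further: 0% = growth equal to vehicle treated cultures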
# assay_setup: S. cerevisiae cln2 rad14 strain, at 50.0 µM, stronger effect = higher value
The panel holds about 79,000 compounds, 15% with a hit somewhere; the sample as a whole holds those more often.
Give bare numbers, in %.

Recorded growth inhibition, per entry:
[[record]]
molecule = "COc1cccc(-n2cnc3c(=O)[nH]cnc32)c1"
unit_of_measurement = "%"
assay_result = -34.9

[[record]]
molecule = "CCOc1cc(/C=N\\NC(=S)N/N=C/c2ccc(O)c(OCC)c2)ccc1O"
unit_of_measurement = "%"
assay_result = 1.55

[[record]]
molecule = "CN(C)S(=O)(=O)c1ccc(CCc2ccc(S(=O)(=O)N(C)C)cc2)cc1"
unit_of_measurement = "%"
assay_result = 5.9

[[record]]
molecule = "Cc1nc(C(=O)N=C(N)N)c(N)nc1-c1ccccc1"
unit_of_measurement = "%"
assay_result = -28.2

[[record]]
molecule = "CCOC(=O)C(C)(C)Oc1ccc2c(-c3ccc(Cl)cc3)cc(=O)oc2c1"
unit_of_measurement = "%"
assay_result = 7.65

[[record]]
molecule = "CCCCCCCCSCCCC(=O)O"
unit_of_measurement = "%"
assay_result = -11.3


Provide the reported growth inhibition of each entry below, same order.
1. CC1=C/C(=N\NC(N)=S)C(C(O)(C(F)(F)F)C(F)(F)F)C(C)(C)C1 (configuration not stated)
2. Cn1c(C(=O)NN)cc2cc(OCc3ccccc3)ccc21
3. Nc1ncnc2scnc12
4. N=c1oc2ccc([N+](=O)[O-])cc2cc1C(=O)NCc1ccccc1
5. COC1OCCCO1
6. CC(=O)Nc1ccc(S(=O)(=O)/C(=C\c2ccc(Cl)o2)c2ccc([N+](=O)[O-])o2)cc1

Completion:
1. 20.2
2. 4.55
3. 0.9
4. 3.95
5. -6.75
6. 57.5

----------
# experiment_notes: NCI Yeast Anticancer Drug Screen. Data for the sgs1 mgt1 strain (AID 161);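 further: 0% = growth of cultures given vehicle only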
# assay_setup: S. cerevisiae sgs1 mgt1 strain, at 50.0 µM, stronger effect = higher value
About 79,000 compounds went through this panel and 15% of them were active in at least one assay; those are over-represented in the sample as a whole.
# growth inhibition >= 20% gives 1 (yes), anything below gives 0 (no)

[[record]]
molecule = "CCn1c2ccccc2c2cc(N)c(N=Nc3ccc(-c4ccc(N)c(OC)c4)cc3OC)cc21"
label_class = "1 (yes)"

[[record]]
molecule = "CCSCCNC(=O)NS(=O)(=O)c1ccc(C)cc1"
label_class = "0 (no)"

[[record]]
molecule = "N#C/C(=C\\c1c(S(=O)(=O)O)sc2ccccc12)C(N)=O (tested in a mixture with another compound)"
label_class = "0 (no)"


Could you now look at the following molecule, please?
Prompt: Does the reported growth inhibition for "CCCCNC[C@@H](O)[C@H](O)COS(C)(=O)=O" fall at or above the 20% mark?
Completion: 0 (no)

----------
# experiment_notes: NCI Yeast Anticancer Drug Screen. Data for the mlh1 rad18 strain (AID 175)
# assay_setup: S. cerevisiae mlh1 rad18 strain growth inhibition; at 50.0 µM; stronger effect = higher value
This is part of a sample that, as a whole, favours compounds with a hit. Of some 79,000 tested, about 15% had one in any assay.
Record form. Attribute: growth inhibition. Fill in for each entry.
Numbers only, in %.

Provide the reported growth inhibition of each entry below, same order.
1. NC(=N\C1=NCCN1)/C(N)=N/C1=NCCN1
2. Fc1ccc(-c2cc(-c3cccs3)cc(-c3ccccc3)n2)cc1
3. CC(=O)OC(NC(=O)c1cc(C)cc(C)c1)c1ccncc1 (configuration not stated)
4. O=c1[nH]c(=O)n(CCCCOc2ccccc2)cc1-c1ccccc1
5. COc1ccc(-n2c(N)c(C#N)c(C#N)c2-c2ccccc2)cc1
6. Nc1nc(N)nc(CNc2c(Br)cc(Br)cc2Br)n1
7. Cc1ccc(S/C=C/C(=O)Nc2ccccc2)cc1
8. NC(CCCCNCc1ccccc1O)C(=O)O (configuration not stated)

Completion:
-13.2
11.1
1.25
5.9
-49.1
4.95
5.6
25.9

Provide the reported growth inhibition of each entry below, same order.
1. SCc1ccc(CS)s1
2. CC(=O)c1sc2c(c1OC(=O)c1ccc(Cl)cc1)c(=O)n(-c1ccccc1)c(=S)n2-c1ccccc1

Completion:
1: -4.3; 2: 9.05

Provide the reported growth inhibition of each entry below, same order.
1. O=CCC1CCCCC1
2. Cn1ncc2c(NCc3ccccc3)nc(Cl)nc21

Completion:
[6.25, 12.9]
